Source of measurements: patent US10894777B2

target: TG2 (Homo sapiens); assay: Colorimetric transamidase activity assay (AL5 substrate), hTG2; format: biochemical; conditions: read-out: kinact/KI (10^3M^−1 min^−1); Table 7
Sequence (P21980 whole entry): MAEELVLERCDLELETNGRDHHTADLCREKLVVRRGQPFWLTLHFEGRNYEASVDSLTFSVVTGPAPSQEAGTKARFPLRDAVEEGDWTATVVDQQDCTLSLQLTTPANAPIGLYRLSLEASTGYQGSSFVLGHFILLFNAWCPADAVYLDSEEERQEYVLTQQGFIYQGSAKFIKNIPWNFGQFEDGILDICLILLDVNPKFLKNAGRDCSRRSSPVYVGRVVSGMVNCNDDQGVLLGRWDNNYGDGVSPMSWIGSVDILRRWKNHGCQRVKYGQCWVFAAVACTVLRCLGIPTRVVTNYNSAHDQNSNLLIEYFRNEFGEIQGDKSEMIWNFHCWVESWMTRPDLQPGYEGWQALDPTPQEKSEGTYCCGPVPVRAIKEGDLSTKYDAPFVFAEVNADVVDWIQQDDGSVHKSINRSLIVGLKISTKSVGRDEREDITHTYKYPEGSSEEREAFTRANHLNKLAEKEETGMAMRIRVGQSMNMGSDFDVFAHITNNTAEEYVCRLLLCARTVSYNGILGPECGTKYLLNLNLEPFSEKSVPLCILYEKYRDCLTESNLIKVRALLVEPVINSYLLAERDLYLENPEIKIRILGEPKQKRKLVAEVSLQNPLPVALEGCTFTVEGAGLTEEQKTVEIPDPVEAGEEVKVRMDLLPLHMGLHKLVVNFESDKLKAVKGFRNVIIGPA
We label by threshold. Values of kinact/KI strictly beneath 1000 M⁻¹ s⁻¹ are Fulfilled. Values of 1000 M⁻¹ s⁻¹ and up are Not fulfilled.

INSERT INTO measurements (compound, classlabel) VALUES
  ('C=CC(=O)NCCCC[C@H](NC(=O)OCc1ccccc1)C(=O)N1CCN(S(=O)(=O)C(C)C)CC1 [Compound 133]', 'Fulfilled'),
  ('C=CC(=O)NCCCC[C@H](NC(=O)OCc1ccccc1)C(=O)N1CCN(S(=O)(=O)Cc2ccccc2)CC1 [Compound 131]', 'Fulfilled'),
  ('C=CC(=O)NCCCC[C@H](NC(=O)OCc1ccccc1)C(=O)N1CCN(S(=O)(=O)CC)CC1 [Compound 134]', 'Fulfilled');

*Q* kinact/KI strictly < 1000 M⁻¹ s⁻¹ for this compound? C=CC(=O)NCCCC[C@H](NC(=O)OCc1ccccc1)C(=O)N1CCN(S(=O)(=O)C2CCCCC2)CC1 [Compound 132]
*A* Not fulfilled

*Q* kinact/KI strictly < 1000 M⁻¹ s⁻¹ for this compound? C=CC(=O)NCCCC[C@H](NC(=O)OCc1ccccc1)C(=O)N1CCN(S(C)(=O)=O)CC1 [Compound 135]
*A* Not fulfilled
